Entries and their % of Baclofen Released after 60 min
assay: Prodrug stability in human liver S9; assay type: in vitro ADME; settings: Human Liver S9 (0.5 mg/mL), 2.0 μM, NADPH, 37° C.
Numeric only. Scale: %

Some solved entries appear below for comparison.
CC(C)C(=O)OCOC(=O)NC[C@H](CC(=O)[O-])c1ccc(Cl)cc1.[Na+] [(18)] = 100
CC(C)C(=O)O[C@@H](OC(=O)NC[C@H](CC(=O)O)c1ccc(Cl)cc1)C(C)C [(104)] = 97
CC(C)C(=O)O[C@H](C)OC(=O)NC[C@H](CC(=O)[O-])c1ccc(Cl)cc1.[Na+] [(34)] = 100
CC(C)C(=O)O[C@@H](OC(=O)NC[C@H](CC(=O)[O-])c1ccc(Cl)cc1)C(C)C.[Na+] [(92)] = 80
CCOC(C)(OCC)C(=O)OCOC(=O)NC[C@H](CC(=O)[O-])c1ccc(Cl)cc1.[Na+] [(51)] = 91
CCCC(=O)OCOC(=O)NC[C@H](CC(=O)[O-])c1ccc(Cl)cc1.[Na+] [(16)] = 100
CC(=O)OC(C)OC(=O)NC[C@H](CC(=O)[O-])c1ccc(Cl)cc1.[Na+] (stereo partly drawn) [(30)] = 87
O=C([O-])C[C@@H](CNC(=O)OCOC(=O)c1ccccc1)c1ccc(Cl)cc1.[Na+] [(12)] = 100

Now examine the next entry.
Look up % of Baclofen Released after 60 min for this molecule: CC(OC(=O)NC[C@H](CC(=O)[O-])c1ccc(Cl)cc1)OC(=O)C(C)C.[Na+] (stereo partly drawn) [(33)]
101

----------
# % of Baclofen Released after 60 min annotations
assay: Caco-2 homogenate S9 stability; type: in vitro ADME; conditions: Caco-2 S9 (0.5 mg protein per mL), 5 μM, 37° C.
Supply the numeric figure in %, leaving out any unit text.

Some solved cases for reference:
CC(C)C(=O)OCOC(=O)NC[C@H](CC(=O)[O-])c1ccc(Cl)cc1.[Na+] = 100
O=C([O-])C[C@@H](CNC(=O)OCOC(=O)c1ccccc1)c1ccc(Cl)cc1.[Na+] = 100
CC(=O)OC(C)OC(=O)NC[C@H](CC(=O)[O-])c1ccc(Cl)cc1.[Na+] (some centres unmarked) = 70
CCCC(=O)OCOC(=O)NC[C@H](CC(=O)[O-])c1ccc(Cl)cc1.[Na+] = 100
CCCC(=O)OC(OC(=O)NC[C@H](CC(=O)[O-])c1ccc(Cl)cc1)C1CCCCC1.[Na+] (some centres unmarked) = 82
CC(C)C(=O)O[C@H](C)OC(=O)NC[C@H](CC(=O)[O-])c1ccc(Cl)cc1.[Na+] = 100

May I ask what % of Baclofen Released after 60 min has been recorded for CCOC(C)(OCC)C(=O)OCOC(=O)NC[C@H](CC(=O)[O-])c1ccc(Cl)cc1.[Na+] ?
100

# input molecule: CC(C)(C)C(=O)OCOC(=O)NC[C@H](CC(=O)[O-])c1ccc(Cl)cc1.[Na+] ; wanted: its % of Baclofen Released after 60 min
100

----------
test: Prodrug stability in rat plasma in vitro; assay type: in vitro ADME; details: 2.0 μM, 37° C.
Observable: % of Baclofen Released after 60 min (%)
Kindly answer with a numeric value in %, unit omitted.

Look over these answered cases.
CC(C)C(=O)OCOC(=O)NC[C@H](CC(=O)[O-])c1ccc(Cl)cc1.[Na+] = 60
CCCC(=O)OCOC(=O)NC[C@H](CC(=O)[O-])c1ccc(Cl)cc1.[Na+] = 40
CC(C)(C)C(=O)OCOC(=O)NC[C@H](CC(=O)[O-])c1ccc(Cl)cc1.[Na+] = 8

Here's the next entry for you.
Name the reported % of Baclofen Released after 60 min value associated with the compound CC(=O)OC(C)OC(=O)NC[C@H](CC(=O)[O-])c1ccc(Cl)cc1.[Na+] (stereo partly shown)
42

----------
Known % of Baclofen Released after 60 min of a selection of compounds
assay: Chemical stability of prodrugs in aqueous buffers; assay type: physicochemical; conditions: aqueous buffer pH 8.0, 37° C.
Lab book: enter the figure in %, no units written.

Please review the following examples before continuing.
CC(C)C(=O)O[C@H](C)OC(=O)NC[C@H](CC(=O)[O-])c1ccc(Cl)cc1.[Na+] [(34)] = 0
CCOC(C)(OCC)C(=O)OCOC(=O)NC[C@H](CC(=O)[O-])c1ccc(Cl)cc1.[Na+] [(51)] = 9
CC(C)C(=O)O[C@H](OC(=O)NC[C@H](CC(=O)[O-])c1ccc(Cl)cc1)C(C)C.[Na+] [(100)] = 0
CC(C)C(=O)OCOC(=O)NC[C@H](CC(=O)[O-])c1ccc(Cl)cc1.[Na+] [(18)] = 0
O=C([O-])C[C@@H](CNC(=O)OCOC(=O)C1CCCCC1)c1ccc(Cl)cc1.[Na+] [(14)] = 2

Recorded % of Baclofen Released after 60 min of CCCC(=O)OC(OC(=O)NC[C@H](CC(=O)[O-])c1ccc(Cl)cc1)C1CCCCC1.[Na+] (stereo partly drawn) [(85)] , please.
0

Would you kindly share the measured % of Baclofen Released after 60 min for CC(C)C(=O)O[C@@H](OC(=O)NC[C@H](CC(=O)[O-])c1ccc(Cl)cc1)C(C)C.[Na+] [(92)] ?
1

----------
Recorded % of Prodrug Remaining after 60 min values for a group of compounds are listed next.
test: Chemical stability of prodrugs in aqueous buffers; type: physicochemical; conditions: aqueous buffer pH 7.4, 37° C.
Give your result in % as a bare value.

CC(C)C(=O)OCOC(=O)NC[C@H](CC(=O)[O-])c1ccc(Cl)cc1.[Na+] [(18)] = 95
CC(C)C(=O)O[C@@H](OC(=O)NC[C@H](CC(=O)O)c1ccc(Cl)cc1)C(C)C [(104)] = 100

Any idea what its % of Prodrug Remaining after 60 min is? The compound is CC(C)(C)C(=O)OCOC(=O)NC[C@H](CC(=O)[O-])c1ccc(Cl)cc1.[Na+] [(20)]
100

----------
Entries and their measured % of Baclofen Released after 60 min follow.
assay: Chemical stability of prodrugs in aqueous buffers; type: physicochemical; conditions: aqueous buffer pH 8.0, 37° C.
Express it in %; write the number only.

Need % of Baclofen Released after 60 min, item CC(OC(=O)NC[C@H](CC(=O)[O-])c1ccc(Cl)cc1)OC(=O)c1ccccc1.[Na+] (some centres unmarked)
2

----------
We begin with a simple list: items and their reported % of Baclofen Released after 60 min.
assay: Chemical stability of prodrugs in aqueous buffers; assay type: physicochemical; conditions: aqueous buffer pH 8.0, 37° C.
Field: numeric (%). Do not append units.

Previously resolved entries follow.
CCC[C@H](OC(=O)NC[C@H](CC(=O)[O-])c1ccc(Cl)cc1)OC(=O)C(C)C.[Na+] = 1
CC(C)C(=O)O[C@@H](OC(=O)NC[C@H](CC(=O)O)c1ccc(Cl)cc1)C(C)C = 0
CC(OC(=O)NC[C@H](CC(=O)[O-])c1ccc(Cl)cc1)OC(=O)C(C)C.[Na+] (stereo partly shown) = 0
CCCC(=O)OC(OC(=O)NC[C@H](CC(=O)[O-])c1ccc(Cl)cc1)C(C)C.[Na+] (stereo partly shown) = 1
CC(C)C(=O)OC(OC(=O)NC[C@H](CC(=O)[O-])c1ccc(Cl)cc1)C(C)C.[Na+] (stereo partly shown) = 0
CCCC(=O)OCOC(=O)NC[C@H](CC(=O)[O-])c1ccc(Cl)cc1.[Na+] = 0
CC(=O)OCOC(=O)NC[C@H](CC(=O)[O-])c1ccc(Cl)cc1.[Na+] = 9
CC(=O)OC(OC(=O)NC[C@H](CC(=O)[O-])c1ccc(Cl)cc1)C(C)C.[Na+] (stereo partly shown) = 2

Next item in the queue.
Fill blank: measured % of Baclofen Released after 60 min of the molecule O=C([O-])C[C@@H](CNC(=O)OCOC(=O)c1cccs1)c1ccc(Cl)cc1.[Na+] is ____.
0

----------
test: Chemical stability of prodrugs in aqueous buffers; type: physicochemical; conditions: aqueous buffer pH 8.0, 37° C.
Observable: % of Baclofen Released after 60 min

The cases that follow already have their % of Baclofen Released after 60 min on record.
CC(C)(C)C(=O)OCOC(=O)NC[C@H](CC(=O)[O-])c1ccc(Cl)cc1.[Na+] = 0%
CCCC(=O)O[C@H](OC(=O)NC[C@H](CC(=O)[O-])c1ccc(Cl)cc1)C(C)C.[Na+] = 1%
O=C([O-])C[C@@H](CNC(=O)OCOC(=O)c1ccccc1)c1ccc(Cl)cc1.[Na+] = 0%
CC(C)C(=O)OC(OC(=O)NC[C@H](CC(=O)[O-])c1ccc(Cl)cc1)C1CCCCC1.[Na+] (stereo partly shown) = 1%
O=C([O-])C[C@@H](CNC(=O)OCOC(=O)CCc1ccccc1)c1ccc(Cl)cc1.[Na+] = 8%

Entry CCCC(=O)O[C@H](CCC)OC(=O)NC[C@H](CC(=O)[O-])c1ccc(Cl)cc1.[Na+] has what % of Baclofen Released after 60 min?
2%

What value of measured % of Baclofen Released after 60 min is listed for CC(C)CC(=O)OCOC(=O)NC[C@H](CC(=O)[O-])c1ccc(Cl)cc1.[Na+] ?
2%

Origin of values: patent US10385014B2
